# TGT: EGFR (UniProt P00533)
# Sequence (P00533 whole entry, looked up): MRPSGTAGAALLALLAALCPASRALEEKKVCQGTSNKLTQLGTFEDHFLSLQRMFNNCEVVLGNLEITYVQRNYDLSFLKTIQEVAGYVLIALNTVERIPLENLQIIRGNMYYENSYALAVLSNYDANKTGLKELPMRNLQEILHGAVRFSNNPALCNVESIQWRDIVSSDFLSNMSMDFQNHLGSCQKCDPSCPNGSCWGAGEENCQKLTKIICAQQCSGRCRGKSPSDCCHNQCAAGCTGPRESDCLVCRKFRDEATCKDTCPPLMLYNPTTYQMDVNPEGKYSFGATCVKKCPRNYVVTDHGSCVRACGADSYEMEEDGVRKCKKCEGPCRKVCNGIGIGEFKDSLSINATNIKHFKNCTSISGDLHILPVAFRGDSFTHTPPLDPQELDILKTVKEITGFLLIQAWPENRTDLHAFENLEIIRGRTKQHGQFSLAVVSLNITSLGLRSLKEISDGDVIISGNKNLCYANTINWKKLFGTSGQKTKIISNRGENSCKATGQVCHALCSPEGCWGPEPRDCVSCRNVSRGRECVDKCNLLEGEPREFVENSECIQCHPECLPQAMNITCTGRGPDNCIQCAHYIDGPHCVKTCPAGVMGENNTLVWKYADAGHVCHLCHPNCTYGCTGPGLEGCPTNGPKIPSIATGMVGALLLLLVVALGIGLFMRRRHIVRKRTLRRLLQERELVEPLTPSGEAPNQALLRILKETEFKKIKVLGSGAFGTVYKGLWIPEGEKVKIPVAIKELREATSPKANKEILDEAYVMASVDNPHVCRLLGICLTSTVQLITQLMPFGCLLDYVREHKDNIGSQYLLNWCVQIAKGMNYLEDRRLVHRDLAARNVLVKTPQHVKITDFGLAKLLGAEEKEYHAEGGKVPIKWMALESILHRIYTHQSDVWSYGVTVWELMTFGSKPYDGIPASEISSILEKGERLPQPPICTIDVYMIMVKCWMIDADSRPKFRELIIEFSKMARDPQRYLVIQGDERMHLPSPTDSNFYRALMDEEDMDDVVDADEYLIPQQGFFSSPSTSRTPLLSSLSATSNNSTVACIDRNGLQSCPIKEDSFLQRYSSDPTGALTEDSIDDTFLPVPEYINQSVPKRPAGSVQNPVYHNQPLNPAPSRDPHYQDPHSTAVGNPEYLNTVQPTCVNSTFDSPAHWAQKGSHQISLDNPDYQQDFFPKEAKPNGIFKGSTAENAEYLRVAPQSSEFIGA
pIC50: −log10 of the molar value.
MEASURED_ENDPOINT: pIC50

CCN1CCC(Oc2ccc3c(c2)/C(=C(\c2ccccc2)c2nc4cc(OC)ccc4[nH]2)C(=O)N3)CC1    5.30 to 6.30

IN: Recorded pIC50 of CCN(CC)CCN1CCC(Nc2ccc3c(c2)/C(=C(\c2cccc(F)c2)c2ncc[nH]2)C(=O)N3)CC1 , please.
OUT: < 5.30

IN: Recorded pIC50 of CCN1CCC(Nc2ccc3c(c2)/C(=C(\c2ccc(F)c(Cl)c2)c2ncc[nH]2)C(=O)N3)CC1 , please.
OUT: 5.30 to 6.30
